# TARGET_OR_SYSTEM: Tyrosyl-tRNA synthetase, putative (Trypanosoma cruzi (strain CL Brener))
# MEASUREMENT_NOTES: Trypanosoma cruzi tyrosyl tRNA synthetase (TcYRS) SOP
# Format: functional
# Parameters: scale not given: direction of the effect not stated beside the values
# REPORTED_CONDITIONS: 30 µM
Known Percent Effect of a selection of compounds

COMPOUND	UNITS_SYMBOL	Percent Effect
CC(C)(N)CN1CCC(c2nnc(CN3CCCC3)n2C2CC2)CC1	%	6.17
O=C(NCCN1CCNCC1)c1nc2ccccc2c(=O)[nH]1	%	12.8
c1csc(CN2C[C@@H]3OCCN(CC4CCCO4)[C@@H]3C2)c1 (stereo partly specified)	%	16.1
CCn1cnnc1CNC(=O)CCC(=O)c1ccc2c(c1)OCCO2	%	23.5
Cc1nc(CN(C)C(=O)Nc2cnn(CC3CCCO3)c2)cs1 (stereo unspecified)	%	-9.76
CC(C)CNC(=O)c1ccc2nnc(C3CCN(S(C)(=O)=O)C3)n2c1 (stereo unspecified)	%	2.56
CCOCC1CC2(CCN(C(=O)c3ccccc3F)CC2)CO1 (stereo unspecified)	%	7.69
COCC1CC2(CCN(Cc3cnn(C)c3)CC2)CN1c1ncccn1 (stereo unspecified)	%	18.5
CC(c1ccc(Cl)cc1)N1CCN(CCS(C)(=O)=O)CC1 (stereo unspecified)	%	14.6
O=S1(=O)N=C(SCc2ccc(Cl)cc2)Nc2ccc(F)cc21	%	-8.97
N#Cc1ccccc1OCCN1CCn2c(nnc2C2CC2)C1	%	2.56

---

# TARGET_OR_SYSTEM: Protein translocase subunit SecA (Escherichia coli (strain K12))
# MEASUREMENT_NOTES: Assay to Identify E. coli SecA ATPase Inhibitors
# Type: functional
# Set-up: scale not given: direction of the effect not stated beside the values
# REPORTED_CONDITIONS: 30 µM
Measured potencies and affinities stand elsewhere.
Known Percent Effect of a selection of molecules

MOLECULE	TARGET_OR_SYSTEM	UNITS_SYMBOL	Percent Effect
CC(C)N1CCn2c(nc3cc(C(N)=O)ccc32)C1	Protein translocase subunit SecA (Escherichia coli (strain K12))	%	-8.72
O=C(c1cccc(OC2CCCC2)c1)N1CCCC(n2cncn2)C1 (stereo not given)	Protein translocase subunit SecA (Escherichia coli (strain K12))	%	-4.01
O=C(NCCN1CCOCC1)NCC(O)c1cccc(F)c1 (stereo not given)	Protein translocase subunit SecA (Escherichia coli (strain K12))	%	-4.85
O=C(C[C@@H]1COC[C@H]2CN(Cc3ccncc3)C[C@@H]12)N1CCOCC1	Protein translocase subunit SecA (Escherichia coli (strain K12))	%	-1.31
O=C(NCCN1CCCCC1)c1scnc1Cl	Protein translocase subunit SecA (Escherichia coli (strain K12))	%	-0.516
CCn1nc(C)c2nc(C(C)C)nc(NCCOC)c21	Protein translocase subunit SecA (Escherichia coli (strain K12))	%	-4.55
Cc1cc(CN2CCOC(CN(C)c3cccnn3)C2)no1 (stereo not given)	Protein translocase subunit SecA (Escherichia coli (strain K12))	%	-4.31
N#Cc1ccccc1N1CCCN(C(=O)CCc2nccs2)CC1	Protein translocase subunit SecA (Escherichia coli (strain K12))	%	-2.01
Cc1ccc2c(c1)CCC21CCN(C(=O)CO)CC1	Protein translocase subunit SecA (Escherichia coli (strain K12))	%	-2.81
CCCN(C(=O)COC)c1nc2c(s1)CCc1c-2cnn1C	Protein translocase subunit SecA (Escherichia coli (strain K12))	%	6.68
CC(C)c1nn(C)c(N2CCOCC2)c1CNCCS(C)(=O)=O	Protein translocase subunit SecA (Escherichia coli (strain K12))	%	-1.81
c1cc(CN2Cc3nnn(CC4CC4)c3C(COCC3CC3)C2)co1 (stereo not given)	Protein translocase subunit SecA (Escherichia coli (strain K12))	%	-5.88
Cc1cc(C)c(CNC(=O)N(C)CC2CCCCO2)c(=O)[nH]1 (stereo not given)	Protein translocase subunit SecA (Escherichia coli (strain K12))	%	-3.05
Cc1ccc(C(CNC(=O)NCc2cc[nH]n2)N2CCOCC2)o1 (stereo not given)	Protein translocase subunit SecA (Escherichia coli (strain K12))	%	-3.05
Cc1cc(C(=O)NCc2ccccn2)no1	Protein translocase subunit SecA (Escherichia coli (strain K12))	%	0.824
Cc1ccccc1N1CC2(CCN(S(=O)(=O)c3cccs3)C2)CC1=O (stereo not given)	Protein translocase subunit SecA (Escherichia coli (strain K12))	%	-1.18
CSc1ccc(Cl)c(C(=O)N2CCCC(CNS(C)(=O)=O)C2)c1 (stereo not given)	Protein translocase subunit SecA (Escherichia coli (strain K12))	%	0.802
Cc1ccc(C)c(C(=O)CN2C(=O)c3ccccc3CS2(=O)=O)c1	Protein translocase subunit SecA (Escherichia coli (strain K12))	%	-0.543
CS(=O)(=O)NCc1ncn2c1CN(C(=O)CC1CCCC1)CCC2	Protein translocase subunit SecA (Escherichia coli (strain K12))	%	-1.59
Cn1cc(CN2CCc3onc(COc4cccnc4)c3C2)cn1	Protein translocase subunit SecA (Escherichia coli (strain K12))	%	6.35
CCS(=O)(=O)N1CCCc2ccc(NC(=O)Cc3ccc(F)cc3)cc21	Protein translocase subunit SecA (Escherichia coli (strain K12))	%	0.369
CCc1nc(CN(Cc2cccs2)CC2CCCO2)no1 (stereo not given)	Protein translocase subunit SecA (Escherichia coli (strain K12))	%	-0.473
COc1ccc(NC(=O)Cn2nc(C)c(C)cc2=O)cc1OC	Protein translocase subunit SecA (Escherichia coli (strain K12))	%	-0.134
Cc1cccc(-c2noc(CN3CCCC(Cn4cncn4)C3)n2)c1 (stereo not given)	Protein translocase subunit SecA (Escherichia coli (strain K12))	%	-6.12
Cc1cc(C)n(CC2CCCCN2CCCS(N)(=O)=O)n1 (stereo not given)	Protein translocase subunit SecA (Escherichia coli (strain K12))	%	1.22
